Target under test: h5-HT4b (Homo sapiens, UniProt Q13639)
Construct: expressed in transfected cells; host or cells: HEK 293 (clone 9), membrane preparation
Sequence (Q13639 whole entry): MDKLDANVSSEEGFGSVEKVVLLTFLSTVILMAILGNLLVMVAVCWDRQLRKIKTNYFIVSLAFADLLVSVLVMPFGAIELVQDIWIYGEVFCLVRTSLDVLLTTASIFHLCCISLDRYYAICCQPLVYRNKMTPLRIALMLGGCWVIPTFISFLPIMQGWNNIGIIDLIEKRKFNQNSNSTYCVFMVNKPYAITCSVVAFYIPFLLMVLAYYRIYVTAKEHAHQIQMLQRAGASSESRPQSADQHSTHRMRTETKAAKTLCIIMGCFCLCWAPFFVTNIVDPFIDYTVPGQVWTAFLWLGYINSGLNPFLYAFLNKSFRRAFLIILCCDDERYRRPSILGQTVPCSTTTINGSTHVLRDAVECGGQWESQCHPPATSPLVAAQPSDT
Experiment summary: 5HT4 antagonism: [3H]GR113808 binding to membranes of h5-HT4b-HEK 293 clone 9 cells
Setup conditions: displacement of [3H]GR113808 0.1 nM, h5-HT4b-HEK 293 membranes, 30 min at 25° C.; read-out: pIC50 (5HT4 antagonistic data) (converted)
Quantity kind: IC50 (nM)

CNCCCCN1CC[C@@H](CNC(=O)c2cc(C#N)cc3c2OCCCO3)[C@H](O)C1 1.62
CC(C)OCCCN1CC[C@@H](CNC(=O)c2cc(N)c(Cl)c3c2OCCO3)[C@H](O)C1 17
Cc1cc2c(c(C(=O)NC[C@@H]3CCNC[C@H]3O)c1)OCCCO2 64.6
CCNc1cc2c(c(C(=O)NC[C@@H]3CCNC[C@H]3O)c1)OCCCO2 1410
CO[C@@H]1CNCC[C@H]1CNC(=O)c1cc(C#N)cc2c1OCCCO2 1350
CCCCN1CC[C@@H](CNC(=O)c2cc(NC)cc3c2OCCCO3)[C@H](O)C1 8.32
Cc1cc2c(c(C(=O)NC[C@@H]3CCN(CCCCNc4nccnc4C)C[C@H]3O)c1)OCCCO2 0.776
N#CCCCN1CC[C@@H](CNC(=O)c2cc(N)c(Br)c3c2OCCCO3)[C@H](O)C1 63.1
Nc1cc2c(c(C(=O)NC[C@@H]3CCN(CCOCCO)C[C@H]3O)c1)OCCCO2 490
CCCCN1CC[C@@H](CNC(=O)c2cc(C)cc3c2OCCCO3)[C@H](OC)C1 1.32

[A] CCCCNc1cc2c(c(C(=O)NC[C@@H]3CCN(CCCC#N)C[C@H]3O)c1)OCCCO2
[B] COCCCCN1CC[C@@H](CNC(=O)c2cc(CC#N)cc3c2OCCCO3)[C@H](O)C1
[C] N#CCCCN1CC[C@@H](CNC(=O)c2cc(N)c(Cl)c3c2OCCCO3)[C@H](O)C1
[D] CCCCNc1cc2c(c(C(=O)NC[C@@H]3CCN(CCCOC)C[C@H]3O)c1)OCCCO2
input: Hello, I need these entries ordered by IC50, highest reading first. Thanks! Dear reader, please state the labels in the requested order.
output: A, D, C, B
(A: 120 nM, D: 81.3 nM, C: 33.1 nM, B: 20 nM)

[a] CNc1cc(C(=O)NC[C@@H]2CCN(CCCO)C[C@H]2O)c2c(c1Cl)OCCO2
[b] CCCCN1CC[C@@H](CNC(=O)c2cc(N)c(Br)c3c2OCCCO3)[C@H](O)C1
input: Please let me know which one, a or b , has a lower measured IC50 value. Choose, then provide that item's label.
output: b
(b: 8.51 nM, a: 16.6 nM)

* * *

Quantity kind: melting point (°C)

CC(=O)CCCN1CC[C@@H](CNC(=O)c2cc(N)c(Cl)c3c2OCCO3)[C@H](O)C1 130
CNc1cc2c(c(C(=O)NC[C@@H]3CCN(CCCOC)C[C@H]3O)c1)OCCCO2 126
COCCCCN1CC[C@@H](CNC(=O)c2cc(N)cc3c2OCCCO3)[C@H](O)C1 174
CNc1cc2c(c(C(=O)NC[C@@H]3CCN(CCOC)C[C@H]3O)c1)OCCCO2 135

* * *

Quantity kind: melting point (°C)

[P] COCCCN1CC[C@@H](CNC(=O)c2cc(C)cc3c2OCCCO3)[C@H](O)C1
[Q] CNc1cc2c(c(C(=O)NC[C@@H]3CCN(CCCC(=O)O)C[C@H]3O)c1)OCCO2
input: From the recorded data, which exceeds the other in melting point: P or Q ? Respond using the label that marks the chosen record.
output: Q
(Q: 240 °C, P: 108 °C)

* * *

Target under test: h5-HT4b (Homo sapiens)
Construct: expressed in transfected cells; host or cells: HEK 293 (clone 9), membrane preparation
Experiment summary: 5HT4 antagonism: [3H]GR113808 binding to membranes of h5-HT4b-HEK 293 clone 9 cells
Setup conditions: displacement of [3H]GR113808 0.1 nM, h5-HT4b-HEK 293 membranes, 30 min at 25° C.; read-out: pIC50 (5HT4 antagonistic data) (converted)
Quantity kind: IC50 (nM)

Compound	Reported value
Cc1cc2c(c(C(=O)NC[C@@H]3CCN(CCCS(C)(=O)=O)C[C@H]3O)c1)OCCCO2 [compound 205]	2.75
CCCCNc1cc2c(c(C(=O)NC[C@@H]3CCN(CCC4OCCO4)C[C@H]3O)c1)OCCCO2 [compound 144]	112

[1] CCCCNc1cc2c(c(C(=O)NC[C@@H]3CCN(CCCO)C[C@H]3O)c1)OCCCO2 [compound 156]
[2] Nc1cc(C(=O)NC[C@@H]2CCN(CCCOC3CCCCC3)C[C@H]2O)c2c(c1Cl)OCCO2 [compound 31]
input: Please tell me which of the two, 1 or 2 , has the higher reported IC50 value. Mark your selection by writing its label.
output: 1
(1: 46.8 nM, 2: 3.31 nM)

* * *

Target under test: h5-HT4b (Homo sapiens, UniProt Q13639)
Construct: expressed in transfected cells; host or cells: HEK 293 (clone 9), membrane preparation
Experiment summary: 5HT4 antagonism: [3H]GR113808 binding to membranes of h5-HT4b-HEK 293 clone 9 cells
Setup conditions: displacement of [3H]GR113808 0.1 nM, h5-HT4b-HEK 293 membranes, 30 min at 25° C.; read-out: pIC50 (5HT4 antagonistic data) (converted)
Quantity kind: IC50 (nM)

Compound	IC50 [nM]
COCCCCN1CC[C@@H](CNC(=O)c2cc(N)c(Cl)c3c2OCCO3)[C@H](O)C1 [compound 29]	11
N#CCCCN1CC[C@@H](CNC(=O)c2cc(N)cc3c2OCCO3)[C@H](O)C1 [compound 6]	57.5
COCCN1CC[C@@H](CNC(=O)c2cc(N)cc3c2OCCCO3)[C@H](O)C1 [compound 45]	135

[1] Nc1cc(C(=O)NC[C@@H]2CCN(CC3CCCO3)C[C@H]2O)c2c(c1Br)OCCO2 (stereo partly shown) [compound 137]
[2] Cc1cc2c(c(C(=O)NC[C@@H]3CCN(CCC(N)=O)C[C@H]3O)c1)OCCCO2 [compound 214]
[3] CS(=O)(=O)NCCN1CC[C@@H](CNC(=O)c2cc(N)c(Cl)c3c2OCCO3)[C@H](O)C1 [compound 63]
input: Order the records by IC50, with each subsequent value no larger than the one before. Provide your answer as the labels ordered per the instruction.
output: 3, 1, 2

* * *

Target under test: h5-HT4b (Homo sapiens)
Construct: expressed in transfected cells; host or cells: HEK 293 (clone 9), membrane preparation
Experiment summary: 5HT4 antagonism: [3H]GR113808 binding to membranes of h5-HT4b-HEK 293 clone 9 cells
Setup conditions: displacement of [3H]GR113808 0.1 nM, h5-HT4b-HEK 293 membranes, 30 min at 25° C.; read-out: pIC50 (5HT4 antagonistic data) (converted)
Quantity kind: IC50 (nM)

CNc1cc2c(c(C(=O)NC[C@@H]3CCN(CCCC#N)C[C@H]3O)c1)OCCCO2 288

[1] CC(C)OCCCN1CC[C@@H](CNC(=O)c2cc(N)c(Cl)c3c2OCCCO3)[C@H](O)C1
[2] COc1cc2c(c(C(=O)NC[C@@H]3CCNC[C@H]3O)c1)OCCCO2
[3] Cc1cc2c(c(C(=O)NC[C@@H]3CCN(CCCC(=O)O)C[C@H]3O)c1)OCCCO2
input: Rank items: key IC50, increasing. Please express your ranking as an ordered list of the labels.
output: 1, 3, 2

* * *

Target under test: h5-HT4b (Homo sapiens)
Construct: expressed in transfected cells; host or cells: HEK 293 (clone 9), membrane preparation
Experiment summary: 5HT4 antagonism: [3H]GR113808 binding to membranes of h5-HT4b-HEK 293 clone 9 cells
Setup conditions: displacement of [3H]GR113808 0.1 nM, h5-HT4b-HEK 293 membranes, 30 min at 25° C.; read-out: pIC50 (5HT4 antagonistic data) (converted)
Quantity kind: IC50 (µM)

[I] COCCCN1CC[C@@H](CNC(=O)c2cc(N)c(Br)c3c2OCCCO3)[C@H](O)C1 [compound 155]
[II] COCCCCN1CCC(O)(CNC(=O)c2cc(C)cc3c2OCCCO3)CC1 [compound 239]
[III] CCCNc1cc2c(c(C(=O)NC[C@@H]3CCN(CCC4OCCO4)C[C@H]3O)c1)OCCCO2 [compound 135]
[IV] N#CCCCN1CC[C@@H](CNC(=O)c2cc(C#N)cc3c2OCCO3)[C@H](O)C1 [compound 246]
input: Output the listed items in decreasing order of IC50. // rank by listing labels in the order requested
output: III, I, II, IV
(III: 0.0933 µM, I: 0.055 µM, II: 0.0191 µM, IV: 0.0126 µM)

[I] Nc1cc2c(c(C(=O)NC[C@@H]3CCN(CC4CCCO4)C[C@H]3O)c1)OCCO2 (some centres unmarked) [compound 22]
[II] CNc1cc2c(c(C(=O)NC[C@@H]3CCN(CCCC#N)C[C@H]3O)c1)OCCO2 [compound 20]
[III] Nc1cc2c(c(C(=O)NC[C@@H]3CCN(CCCO)C[C@H]3O)c1)OCCO2 [compound 117]
input: Reorder: IC50, max to min. # answer = labels listed in requested order
output: II, I, III
(II: 0.0525 µM, I: 0.0178 µM, III: 0.00155 µM)

[P] CNc1cc(C(=O)NC[C@@H]2CCN(CC3CCCO3)C[C@H]2O)c2c(c1Cl)OCCO2 (some centres unmarked) [compound 129]
[Q] CC1(CCCN2CC[C@@H](CNC(=O)c3cc(N)cc4c3OCCCO4)[C@H](O)C2)OCCO1 [compound 59]
[R] Nc1cc2c(c(C(=O)NC[C@@H]3CCN(CCC4OCCO4)C[C@H]3O)c1)OCCO2 [compound 108]
input: rank_up(items): orders items by reported IC50 in ascending numerical order. A complete answer lists every label in the requested sequence.
output: P, R, Q
(P: 0.0162 µM, R: 0.0257 µM, Q: 0.0513 µM)

[1] CNc1cc2c(c(C(=O)NC[C@@H]3CCN(CCOC)C[C@H]3O)c1)OCCO2 [compound 35]
[2] CNc1cc2c(c(C(=O)NC[C@@H]3CCN(CCCC(C)=O)C[C@H]3O)c1)OCCO2 [compound 61]
input: For the pair 1 and 2 , which entry has the numerically smaller recorded IC50? Answer by quoting the chosen item's label.
output: 2

[A] N#Cc1cc2c(c(C(=O)NC[C@@H]3CCNC[C@H]3O)c1)OCCCO2 [compound 175]
[B] COCCCN1CC[C@@H](CNC(=O)c2cc(N)c(Cl)c3c2OCCCO3)[C@H](O)C1 [compound 47]
input: # min-compare on IC50 between A and B Field: selected label. Fill in the label of the entry you choose.
output: B

[1] Nc1cc(C(=O)NC[C@@H]2CCN(CCCCO)C[C@H]2O)c2c(c1Cl)OCCO2 [compound 53]
[2] CC(C)OCCCN1CC[C@H](CNC(=O)c2cc(C#N)cc3c2OCCCO3)[C@@H](O)C1 [compound 219]
[3] CCCCN1CC[C@@H](CNC(=O)c2cc(C#N)cc3c2OCCCO3)[C@H](O)C1 [compound 159]
input: List these items ordered by IC50, big to small. Please, when replying, give the labels in the order that was requested.
output: 1, 3, 2
(1: 0.02 µM, 3: 0.00501 µM, 2: 0.00186 µM)
